- subject-of-test: human NaV1.6 (hNaV1.6) (Homo sapiens)
- Construct: expressed in transfected cells; host or cells: HEK-293 (G418 selection)
- Sequence (Q9UQD0 whole entry): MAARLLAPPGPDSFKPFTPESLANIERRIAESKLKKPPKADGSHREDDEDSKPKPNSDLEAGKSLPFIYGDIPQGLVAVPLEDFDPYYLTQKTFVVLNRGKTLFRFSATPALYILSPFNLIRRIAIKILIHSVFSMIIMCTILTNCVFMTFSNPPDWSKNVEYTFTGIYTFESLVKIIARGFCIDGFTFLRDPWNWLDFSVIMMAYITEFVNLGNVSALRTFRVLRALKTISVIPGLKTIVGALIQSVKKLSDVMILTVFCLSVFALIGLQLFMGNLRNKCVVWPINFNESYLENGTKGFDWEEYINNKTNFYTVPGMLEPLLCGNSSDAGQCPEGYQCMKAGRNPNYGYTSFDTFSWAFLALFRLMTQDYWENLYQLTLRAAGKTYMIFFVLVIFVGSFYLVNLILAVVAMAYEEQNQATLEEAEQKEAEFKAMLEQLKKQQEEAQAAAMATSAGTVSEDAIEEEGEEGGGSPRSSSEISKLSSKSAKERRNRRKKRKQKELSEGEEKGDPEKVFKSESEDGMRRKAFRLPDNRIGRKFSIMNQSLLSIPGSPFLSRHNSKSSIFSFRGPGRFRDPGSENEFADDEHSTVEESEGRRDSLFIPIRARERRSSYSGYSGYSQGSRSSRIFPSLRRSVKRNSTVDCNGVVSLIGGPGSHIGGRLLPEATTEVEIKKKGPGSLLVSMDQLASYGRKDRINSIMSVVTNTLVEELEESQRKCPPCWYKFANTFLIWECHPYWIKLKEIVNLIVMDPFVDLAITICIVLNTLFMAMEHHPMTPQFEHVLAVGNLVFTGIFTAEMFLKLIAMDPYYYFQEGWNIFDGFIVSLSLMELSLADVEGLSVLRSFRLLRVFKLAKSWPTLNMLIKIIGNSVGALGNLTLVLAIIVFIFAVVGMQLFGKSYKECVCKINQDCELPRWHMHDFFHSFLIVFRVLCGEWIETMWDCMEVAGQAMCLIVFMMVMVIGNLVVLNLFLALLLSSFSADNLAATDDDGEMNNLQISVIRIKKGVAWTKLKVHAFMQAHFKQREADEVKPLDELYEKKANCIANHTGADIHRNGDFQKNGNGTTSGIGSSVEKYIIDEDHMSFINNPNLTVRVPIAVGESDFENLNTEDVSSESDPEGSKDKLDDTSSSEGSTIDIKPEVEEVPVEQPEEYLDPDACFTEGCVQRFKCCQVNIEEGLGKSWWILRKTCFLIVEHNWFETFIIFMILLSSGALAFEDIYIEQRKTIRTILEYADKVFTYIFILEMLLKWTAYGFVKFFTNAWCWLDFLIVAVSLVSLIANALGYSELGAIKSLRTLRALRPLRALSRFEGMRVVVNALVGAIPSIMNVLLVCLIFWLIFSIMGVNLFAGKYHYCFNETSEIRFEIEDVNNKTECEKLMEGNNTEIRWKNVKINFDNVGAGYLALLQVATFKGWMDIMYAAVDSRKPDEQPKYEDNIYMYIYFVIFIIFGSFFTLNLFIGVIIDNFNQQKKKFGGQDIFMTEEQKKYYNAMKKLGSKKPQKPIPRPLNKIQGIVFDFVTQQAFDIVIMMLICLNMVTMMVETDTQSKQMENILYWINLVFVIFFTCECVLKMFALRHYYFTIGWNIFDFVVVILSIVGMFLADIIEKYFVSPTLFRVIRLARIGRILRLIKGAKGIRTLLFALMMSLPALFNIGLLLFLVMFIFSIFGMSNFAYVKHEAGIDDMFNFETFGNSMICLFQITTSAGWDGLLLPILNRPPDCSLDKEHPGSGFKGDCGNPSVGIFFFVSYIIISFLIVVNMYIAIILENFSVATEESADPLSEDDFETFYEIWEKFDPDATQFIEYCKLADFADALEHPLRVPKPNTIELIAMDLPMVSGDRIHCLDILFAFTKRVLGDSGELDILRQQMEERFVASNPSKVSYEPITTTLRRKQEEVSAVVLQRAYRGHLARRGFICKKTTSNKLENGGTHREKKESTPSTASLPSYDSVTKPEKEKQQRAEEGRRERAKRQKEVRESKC
- protocol-summary: Modulation of late (persistent) sodium current (INaL), PatchXpress electrophysiology, HEK-293 cells expressing hNaV1.6, ATX-II evoked
- Format: cell-based
- condition-label: HEK293; 1 μM compound; HEK-293 cells expressing recombinant human NaV1.6; late current evoked by 300 nM ATX-II; steady-state inhibition
The following compounds are listed with their measured inhibition at 1 µM values.

Look over these answered cases.
FC(F)(F)Cn1nnc2ccc(-c3ccc(OC(F)(F)F)cc3)nc21
30 to 70%
CCn1nnc2ccc(-c3ccc(OC(F)(F)F)cc3)cc21
30 to 70%
Cc1nnc(CCn2nnc3ccc(-c4ccc(OC(F)(F)F)cc4)nc32)o1
30 to 70%
FC(F)Cn1nnc2ccc(-c3ccc(OC(F)(F)F)cc3)cc21
< 30%
N#CC1(c2ccc(-c3ccc4nnn(CC(F)(F)F)c4c3)cc2)CC1
< 30%

Query: inhibition at 1 µM; subject: "FC(F)(F)Cn1nnc2ccc(-c3ccc(OC(F)(F)F)cc3)cc21"
> 70%

Query: inhibition at 1 µM; subject: "FC(F)(F)Cn1nnc2ncc(-c3ccc(OC(F)(F)F)cc3)cc21"
< 30%

Query: inhibition at 1 µM; subject: "COCc1cc(OC(F)(F)F)ccc1-c1ccc2nnn(CC(F)(F)F)c2c1"
30 to 70%

Query: inhibition at 1 µM; subject: "FC(F)(F)Cn1nnc2cnc(-c3ccc(OC(F)(F)F)cc3)nc21"
< 30%

Query: inhibition at 1 µM; subject: "FC(F)(F)Oc1ccc(-c2ccc3nn[nH]c3c2)cc1"
< 30%

Query: inhibition at 1 µM; subject: "COCCn1nnc2ccc(-c3ccc(OC(F)(F)F)cc3)cc21"
30 to 70%
